Molecular target: T1, deltaNp73delta isoform WT (UniProt O15350-4 63-403)
T1 sequence: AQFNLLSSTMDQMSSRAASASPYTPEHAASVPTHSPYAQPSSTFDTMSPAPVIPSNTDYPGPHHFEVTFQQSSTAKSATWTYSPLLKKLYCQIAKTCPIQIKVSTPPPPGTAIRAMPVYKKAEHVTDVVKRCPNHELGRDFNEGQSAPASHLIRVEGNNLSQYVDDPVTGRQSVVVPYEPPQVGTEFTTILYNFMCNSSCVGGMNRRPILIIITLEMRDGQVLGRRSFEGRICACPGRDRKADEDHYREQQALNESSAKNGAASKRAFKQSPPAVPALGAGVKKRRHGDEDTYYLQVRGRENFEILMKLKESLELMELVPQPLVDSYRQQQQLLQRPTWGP
Experiment: fluorescence polarization; FP: 50 nM fluorescein-DNA, 0-20000 nM protein, 30 min on ice then room temperature; buffer, salt and pH not stated. Crystals: 0.1 M Tris pH 8.5, 50-125 mM sodium acetate, 20-24% PEG 3350, room temperature
Settings: protein: recombinant; chain copies: 4; label: fluorescein; self-complementary
Measurement kind: Kd (nM)
State just the number; it will be interpreted in nM.

Q. // Input: 20mer GAACA full-site (0/4 RY) (dsDNA) DNA 1: GAACATGTTCGAACATGTTC DNA 2: GAACATGTTCGAACATGTTC . Output its Kd only.
A. 940
